system: methicillin-resistant Staphylococcus aureus (MRSA); experiment: Broth microdilution MIC/MBC, MRSA; format: cell-based; conditions: MRSA NRS 383
Provide the recorded MBC for the entries that follow.
Provide the reading as a plain figure in µM.

Req: Entry `O=C(O)[C@@H](Cc1ccccc1)N1C(=O)/C(=C/c2cccc(Oc3ccc(F)cc3)c2)SC1=S` : reported MBC = ?
Resp: 32

Req: Entry `O=C(O)[C@H](Cc1ccccc1)N1C(=O)/C(=C/c2cccc(-c3ccc(Cl)c(Cl)c3)c2)SC1=S` : reported MBC = ?
Resp: 4

Req: Entry `O=C(O)[C@H](Cc1ccccc1)N1C(=O)/C(=C/c2cccc(Oc3ccc(Cl)c(Cl)c3)c2)SC1=S` : reported MBC = ?
Resp: 8

Req: Entry `O=C(O)[C@H](Cc1ccccc1)N1C(=O)/C(=C/c2cccc(OC/C=C/c3ccc(Cl)c(Cl)c3)c2)SC1=S` : reported MBC = ?
Resp: 8

Ref: paper PMC5053523
